Data provenance: ChEMBL document CHEMBL4834420

# Lookup of reported half-life keyed by entry
PROTOCOL_NOTES: Half-life in Beagle dog
Assay type: ADME, Canis lupus familiaris
TEST_PARAMETERS: in vivo
Record the value in h, omitting the unit from your answer.

Consider the worked cases shown below.
compound="CCn1c(-c2ccc(C(F)(F)F)nc2)nc2c(O[C@H]3CCN(C(=O)C4CCOC4)C3)ncnc21 (stereo not given in full)" observed_result=3.6
compound=CCn1c(-c2ccc(C(F)(F)F)nc2)nc2c(N[C@H]3CCN(C(=O)C4CC4)C3)ncnc21 observed_result=3.1

[in] # get_value(readout='half-life', item= CCn1c(-c2ccc(C(F)(F)F)nc2)nc2c(O[C@H]3CCN(C(=O)N4CC(OC)C4)C3)ncnc21 )
[out] 0.7

[in] Please answer likewise for CCn1c(-c2cnc(C)nc2)nc2c(O[C@H]3CCN(C(=O)C4CC(F)(F)C4)C3)ncnc21
[out] 0.8

[in] Another compound to look at: CCC(=O)N1CC[C@H](Nc2ncnc3c2nc(-c2cnc(C)nc2)n3CC)C1
[out] 2.7
